System: Calu-3
experimental details: cell viability relative to DMSO; higher = less toxic
condition: 72 h; 10000 nM
measurement type: cell viability (%)
Enter your answer as a number in %; do not include the unit.

Please report the recorded cell viability for CN1CCN(c2ccc3[nH]c(-c4ccc5[nH]c(-c6ccc(O)cc6)nc5c4)nc3c2)CC1 [pibenzimol] .
122

// query cell viability value for entry Clc1ccc(CO/N=C(\Cn2ccnc2)c2ccc(Cl)cc2Cl)c(Cl)c1 [oxiconazole]
103

Which measured cell viability value corresponds to O=C(Oc1cccc2cccnc12)c1ccccc1 [benzoxiquine] ?
93.7

Quick one: cell viability for [O-][S+](c1ccccc1)c1ccc2nnnn2n1 (configuration not stated) [Ro-106-9920] ?
63.7

I am curious: what cell viability value has been reported for Cc1cn(-c2cc(NC(=O)c3ccc(C)c(Nc4nccc(-c5cccnc5)n4)c3)cc(C(F)(F)F)c2)cn1 [nilotinib] ?
100

Query: cell viability; subject: CN1C(=O)N(c2ccc(C#N)c(C(F)(F)F)c2)C(=O)[C@]1(CO)c1ccccc1 [GLPG0492-R-enantiomer]
110

Look at this compound and give its reported cell viability. O=C(O)[C@]1(Cc2cccc(Nc3nccs3)n2)CC[C@@H](Oc2cccc(Cl)c2F)CC1 [MK-5108]
76.8

Item under review: CC(C)(C)c1cc(C(C)(C)C)c2c(c1)C(O)(C(F)(F)F)C(=O)O2 (racemic) [rac-BHFF] . Reported cell viability?
106

Item O=C(O)/C=C\c1c[nH]cn1 [cis-Urocanic acid] has what recorded cell viability?
96.6

For CN1[C@@H]2CC[C@H]1C[C@@H](OC(=O)N1Cc3ccccc3NC1=O)C2 [DAU-5884] , what is its reported cell viability?
94.4

Fill in: cell viability of Cc1ccc(O)c([C@H](CCN(C(C)C)C(C)C)c2ccccc2)c1 [tolterodine] is ___
95.8

Which cell viability is reported for this compound? Cc1c(CN2CCN(C(=O)[C@H](C)O)CC2)sc2c(N3CCOCC3)nc(-c3cnc(N)nc3)nc12 [GDC-0980]
19.2

Given `COc1ccc(Nc2ncnc3ccc(OC)cc23)cc1` , state its recorded cell viability.
77.5

Which cell viability is reported for this compound? Nc1cc(C(F)(F)F)c(-c2nc(N3CCOCC3)nc(N3CCOCC3)n2)cn1 [PI3K-IN-2]
21.4

# cell viability lookup, item O=C1C=CC[C@@H]2[C@H]3CCCN4CCC[C@@H](CN12)[C@@H]34 [sophocarpine]
102

// cell viability lookup, key: C=C[C@@H]1C[C@]1(NC(=O)[C@@H]1C[C@@H]2CN1C(=O)[C@H](C(C)(C)C)NC(=O)O[C@@H]1C[C@H]1CCCCCc1nc3ccc(OC)cc3nc1O2)C(=O)NS(=O)(=O)C1CC1 [grazoprevir]
103

What measured cell viability goes with CN1CCN(CCCN2c3ccccc3Sc3ccc(S(=O)(=O)N(C)C)cc32)CC1 [thioproperazine] ?
90.9
